meta.source: patent US20180327506A1

Target: T1, full-length mature human EMR2 (residues Q24-N823) with N-terminal aspartic acid/lysine epitope tag, … (human, UniProt Q9UHX3 24-823)
T1 sequence: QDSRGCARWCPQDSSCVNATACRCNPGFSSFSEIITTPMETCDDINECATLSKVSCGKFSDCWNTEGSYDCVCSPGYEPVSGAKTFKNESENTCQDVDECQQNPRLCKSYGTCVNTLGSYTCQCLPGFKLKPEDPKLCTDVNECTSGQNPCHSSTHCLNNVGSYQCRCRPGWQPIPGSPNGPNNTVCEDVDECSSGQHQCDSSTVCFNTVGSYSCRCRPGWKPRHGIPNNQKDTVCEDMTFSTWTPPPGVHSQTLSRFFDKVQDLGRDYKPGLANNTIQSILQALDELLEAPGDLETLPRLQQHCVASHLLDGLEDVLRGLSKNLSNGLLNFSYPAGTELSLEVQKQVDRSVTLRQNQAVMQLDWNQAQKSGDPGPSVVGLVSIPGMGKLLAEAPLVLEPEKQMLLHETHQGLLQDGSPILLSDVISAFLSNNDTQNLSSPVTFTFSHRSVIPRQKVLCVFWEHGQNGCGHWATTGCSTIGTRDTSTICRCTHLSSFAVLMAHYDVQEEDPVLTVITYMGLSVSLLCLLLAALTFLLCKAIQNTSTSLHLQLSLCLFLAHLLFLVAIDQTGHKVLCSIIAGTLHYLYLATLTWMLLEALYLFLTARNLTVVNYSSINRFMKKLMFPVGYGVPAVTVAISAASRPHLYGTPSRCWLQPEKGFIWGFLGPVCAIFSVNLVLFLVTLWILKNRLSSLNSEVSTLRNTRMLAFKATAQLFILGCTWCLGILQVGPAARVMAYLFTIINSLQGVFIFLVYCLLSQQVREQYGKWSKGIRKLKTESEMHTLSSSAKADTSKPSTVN
Assay: cell-based or functional assay
Answer each item with its documented % live, FAB-saporin killing assay.
Give bare numbers, in %.

Below, 5 binders whose answers are already recorded.
SC93.266 (antibody, V domains shown, Murine hybridoma antibody) VH: EVKLEESGGGLVQPGGSMKLSCAASGFTFSDAWMDWVRQSPEKGLEWVAEIRSKVNNHETYYAESVKGRFTISRDDSKSSVYLQMNSLRAEDTGIYYCIRNDYFDYWGQGTTLTVSS VL: DIQMTQTTSSLSASLGDRVTISCSASQGIRNYLNWYQQKPDGTVKLLIYYTSRLHSGVPSRFSGSGSGTDYSLTISNLEPEDIATYYCQQYGKLPYTFGGGTKLEIN : 13.1
SC93.255 (antibody, V domains shown, Murine hybridoma antibody with a kappa light chain) VH: QVQLQQSDAELVKPGSSVKISCKVSGFTFTDHTIHWMKQRPEQGLEWIGYIYPRDGNTKYNEKFTGKATLTADRSSSTAYMQLNSLTSEDSAVYFCASSNWAQWYFDIWGTGTTVTVSS VL: DIQMTQSSSYLSVSLGGRVTITCKASDHINNWLAWYQQKPGNAPRLLIFGATSLETGVPSRFSGSGSGKDYTLSITSLQSEDVGTYYCQQYWSIPYTFGGGTKLEIK : 12.1
SC93.256 (antibody, IgG2a, V domains shown, murine, IgG2a) VH: EVKLEESGGGLVQPGGSMKLSCAASGFTFSDAWMDWVRQSPEKGLEWVAEIRSKVNNHETYYAESVKGRFTISRDDSKSSVYLQMNSLRAEDTGIYYCIRNDYFDYWGQGTTLTVSS VL: DIQMTQTTSSLSASLGDRVTISCSASQGIRNYLNWYQQKPDGTVKLLIYYTSRLHSGVPSRFSGSGSGTDYSLTISNLEPEDIATYYCQQYGKLPYTFGGGTKLEIK : 12.5
SC93.267 (antibody, V domains shown, Murine hybridoma antibody with a kappa light chain; also called anti-hEMR2 antibody SC93.267) VH: EVQLQQSGPELVKPGASVRMSCKASGYTFTDYNMYWVKQSLGKSLEWIGYIYPNTGGATYNQKFKGKATLTVNKSSSTAFMELRSLTSEDSAVYYCGRGGLGPFAYWGQGTLVTVSA VL: DIQMTQSPSSLSASLGGKVTITCRASQDINKFISWYQHRPGKGPRLLIHYASTLQPGIPSRFSGSGSGRDYSFSISNLEPEDIATYYCLQYDNLWTFGGGTKLEIR : 15.6
SC93.243 (antibody, IgG2b, V domains shown, murine, IgG2b) VH: QVQLQQSGAELMKPGASVKISCKATGYTFSSYWIEWVKQRPGHGLEWIGEILPGSGRTNYNERLKGKATFTADTSSNTAYMQLSSLTSEDSAVYYCARPYFYGSNFDFWGQGTTLTVSS VL: DIVMTQSHKFMSTSVGDRVSITCKASQDVGTAVAWYQQKPGQSPKLLIYWASTRHTGVPDRFTGSGSGTDFTLTISNVQSEDLADYFCQQYSSYHTFGGGTKLEIK : 68.7

Answer for every listed entry: what is its % live, FAB-saporin killing assay? The entries follow.
1. SC93.239 (antibody, V domains shown, Murine hybridoma antibody with a kappa light chain; also called clone SC93.239; SC93.239 (Bin A)) VH: LVQLQQSGVELARPGASVKLSCKASGYIFTSYGISWVKQRTGQGLEWIGNIYPRTGNTYYNEKFKDKATLTADKSSNTAYMELRSLTSEDSAVYFCARGTHYDPLDYWGQGTTLTVSS VL: ENVLTQSPAIMSASPGEKVTMTCRASSSVSSSDLHWYQQKSGASPKLWIYSTSNLASGVPARFSGSGSGASCSLTISSVEAEDAATYYCHQYSGYPWTFGGGTKLEIK
2. SC93.252 (antibody, IgG2a, V domains shown, murine, IgG2a) VH: QVQLQQSDAELVKPGASVKISCKVSGFSFTDHTIHWMRQRPEQGLEWIGYIYPTDGNTRYNEKFKGKASLTADKSSTTAYMQLSSLTSEDSAVYFCAKRGYYWYFDVWGTGTTVTVSS VL: DIQMTQASSYLSVSLGGRVTITCKASDHINNWLAWYQQKPGNAPRLLISHATNLETGFPSRFSGSGSGKDYTLSITSLQTEDVATYYCQQYWNIPYTFGGGTKLEIE

[16.8, 10.8]
